Values were extracted from the RNAGym collection of RNA variant scans (doi:10.7554/elife.90254).

B1: OR4K15 (parent)
chain: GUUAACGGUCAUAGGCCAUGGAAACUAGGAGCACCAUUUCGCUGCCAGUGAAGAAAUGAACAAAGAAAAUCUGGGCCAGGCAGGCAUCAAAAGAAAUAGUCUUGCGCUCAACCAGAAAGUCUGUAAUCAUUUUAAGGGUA

# Variants of: B1
# method: self-cleavage, relative activity (ratio to wild type); higher = more cleavage; in vitro, sequencing; the parent is a self-cleaving ribozyme
readout-type: self-cleavage
Answer with the value's number alone.

Solved entries:
* A68U G75C | 0.22
* A24G G29U | 1.2
* A33G A54U | 1.04

Any idea what its self-cleavage is? The variant is A54G A69G 1.1

Would you kindly repeat that for G53A U130C ? 1.96

What do you have for U39C G136A ? 2.38

And for A33U A111G ? 0.03

Now consider A18U A24U and answer again. 1.36

# iterate: G104A A110U 0.02

What about U2A U39C ? 1.26

Another variant to check: U38A A89U 2.11
